Target Of Assay: T1, NHERF3_3, Q5T2W1
T1 sequence (Q5T2W1 238-333, limits assumed, looked up): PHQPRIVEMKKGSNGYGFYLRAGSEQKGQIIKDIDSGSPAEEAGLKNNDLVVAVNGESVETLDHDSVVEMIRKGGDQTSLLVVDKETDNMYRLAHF
Test Name: holdup assay
Set-up: key: below the threshold = too weak to quantify, mostly under pKd 3.1 to 4
Setup Conditions: plain residues with an end cap or a label only (N-terminal biotin on a linker: ado-ado)
Measure: pKd

The following binders have reported results that may help.
{"Binder": "IQISELETNV [SLC1A7, O00341]", "pKd": "below the threshold"}
{"Binder": "QLKSGRDSTV [TMEM178A, Q8NBL3]", "pKd": "below the threshold"}
{"Binder": "DFKHTKSFII [JAM2, P57087]", "pKd": "below the threshold"}
{"Binder": "STYCDYTIEI [FAM71C, Q8NEG0]", "pKd": "below the threshold"}
{"Binder": "IKLETKKTKL [SLC15A2, Q16348]", "pKd": 4.67}
{"Binder": "MQILSKPEFI [NPSR1, Q6W5P4]", "pKd": "below the threshold"}

Please examine the following record next.
Entry MLPANYVEAI [NEB, P20929] — recorded pKd = below the threshold
